- System: OVXF 1544
- Measurement description: 3D clonogenic assay (PDX)
- Format: cell-based, human
- Run conditions: Homo sapiens; OVXF 1544, Ovarian; read-out: rel. IC50
Quantity: IC50 (µM)
Give just the numeric value; µM need not be written.

Lab note: compound `O[C@H](c1cc(-c2ccc(Cl)cc2)nc2ccccc12)[C@@H]1CCCCN1` tested on OVXF 1544; recorded IC50 was 12.8

----------
- Test system: RXF 1114
- Measurement description: 3D clonogenic assay (PDX)
- Type: cell-based, human
- Run conditions: Homo sapiens; RXF 1114, Renal; read-out: abs. IC50
Quantity: IC50 (µM)
Give just the numeric value; µM need not be written.

The compound `O[C@H](c1cc(-c2ccc(Cl)cc2)nc2ccccc12)[C@@H]1CCCCN1` showed IC50 equal to 8.18

----------
- System: PAXF 2005
- Measurement description: 3D clonogenic assay (PDX)
- Assay type: cell-based, human
- Run conditions: Homo sapiens; PAXF 2005, Pancreas; read-out: abs. IC50
Quantity: IC50

The compound `O[C@H](c1cc(-c2ccc(Cl)cc2)nc2ccccc12)[C@@H]1CCCCN1` showed IC50 equal to 9.16 µM

----------
- Tested on: PAXF 546
- Measurement description: 3D clonogenic assay (PDX)
- Assay type: cell-based, human
- Run conditions: Homo sapiens, PAXF546; PAXF 546, Pancreas; read-out: rel. IC50
- Protocol: The anti-tumor efficacy of S1 in the patient-derived tumor xenograft (PDX) tumor panel was assessed, where the efficacy of S1 in PDX tumor panel in the 96-well format, in 10 concentrations in duplicate was performed. Colony formation of tumor cell suspensions in a soft-agar matrix was observed and quantified. The output is IC50 values and dose response-relationships based on number of colonies in control and treatment wells, as identified by an automated image analysis algorithm. […]
Quantity: IC50 (µM)
Give just the numeric value; µM need not be written.

The compound O[C@H](c1cc(-c2ccc(Cl)cc2)nc2ccccc12)[C@@H]1CCCCN1 [S1] showed IC50 equal to 9.07

----------
- Tested on: LXFE 397
- Measurement description: 3D clonogenic assay (PDX)
- Assay type: cell-based, human
- Run conditions: Homo sapiens; LXFE 397, Lung Epidermoid; read-out: abs. IC50
- Procedure: The anti-tumor efficacy of S1 in the patient-derived tumor xenograft (PDX) tumor panel was assessed, where the efficacy of S1 in PDX tumor panel in the 96-well format, in 10 concentrations in duplicate was performed. Colony formation of tumor cell suspensions in a soft-agar matrix was observed and quantified. The output is IC50 values and dose response-relationships based on number of colonies in control and treatment wells, as identified by an automated image analysis algorithm. […]
Quantity: IC50
In your response, put the unit directly after the numeric value.

The compound `O[C@H](c1cc(-c2ccc(Cl)cc2)nc2ccccc12)[C@@H]1CCCCN1` showed IC50 equal to 5.14 µM

----------
- Tested on: PAXF 2045
- Measurement description: 3D clonogenic assay (PDX)
- Type: cell-based, human
- Run conditions: Homo sapiens; PAXF 2045, Pancreas; read-out: rel. IC50
Quantity: pIC50
Here pIC50 is given on a logarithmic scale as minus log10 of the concentration in mol/L.

The compound `O[C@H](c1cc(-c2ccc(Cl)cc2)nc2ccccc12)[C@@H]1CCCCN1` showed pIC50 equal to 5.15

----------
- Measurement description: Pharmacokinetic evaluation in mice (plasma and brain)
- Assay type: in vivo, male NMRI mice
- Run conditions: male, NMRI, mouse, iv, plasma, i.v., 2 mg/kg, read-out: Plasma T1/2 (converted)
Quantity: half-life (h)
Give just the numeric value; h need not be written.

The compound O[C@H](c1cc(-c2ccc(Cl)cc2)nc2ccccc12)[C@@H]1CCCCN1 [S1] showed half-life equal to 84

----------
- System: CXF 1103
- Measurement description: 3D clonogenic assay (PDX)
- Format: cell-based, human
- Run conditions: Homo sapiens, CXF1103; CXF 1103, Colorectal; read-out: rel. IC50
Quantity: pIC50
Here pIC50 is given on a logarithmic scale as minus log10 of the concentration in mol/L.

The compound `O[C@H](c1cc(-c2ccc(Cl)cc2)nc2ccccc12)[C@@H]1CCCCN1` showed pIC50 equal to 5.19

----------
- Tested on: CXF 1783
- Measurement description: 3D clonogenic assay (PDX)
- Type: cell-based, human
- Run conditions: Homo sapiens; CXF 1783, Colorectal; read-out: rel. IC50
Quantity: IC50

The compound O[C@H](c1cc(-c2ccc(Cl)cc2)nc2ccccc12)[C@@H]1CCCCN1 [S1] showed IC50 equal to 8.81 µM

----------
- Test system: OVXF 899
- Measurement description: 3D clonogenic assay (PDX)
- Type: cell-based, human
- Run conditions: Homo sapiens; OVXF 899, Ovarian; read-out: abs. IC50
Quantity: pIC50
Here pIC50 is given on a logarithmic scale as minus log10 of the concentration in mol/L.

The compound `O[C@H](c1cc(-c2ccc(Cl)cc2)nc2ccccc12)[C@@H]1CCCCN1` showed pIC50 equal to 5.20

----------
- Tested on: MAXF 574
- Measurement description: 3D clonogenic assay (PDX)
- Assay type: cell-based
- Run conditions: Homo sapiens; MAXF 574, Breast; read-out: abs. IC50
Quantity: pIC50
Here pIC50 is given on a logarithmic scale as minus log10 of the concentration in mol/L.

The compound `O[C@H](c1cc(-c2ccc(Cl)cc2)nc2ccccc12)[C@@H]1CCCCN1` showed pIC50 equal to 4.30

----------
- Tested on: RXF 631
- Measurement description: 3D clonogenic assay (PDX)
- Format: cell-based, human
- Run conditions: Homo sapiens; RXF 631, Renal; read-out: abs. IC50
- Experimental: The anti-tumor efficacy of S1 in the patient-derived tumor xenograft (PDX) tumor panel was assessed, where the efficacy of S1 in PDX tumor panel in the 96-well format, in 10 concentrations in duplicate was performed. Colony formation of tumor cell suspensions in a soft-agar matrix was observed and quantified. The output is IC50 values and dose response-relationships based on number of colonies in control and treatment wells, as identified by an automated image analysis algorithm. […]
Quantity: IC50 (µM)
Give just the numeric value; µM need not be written.

The compound O[C@H](c1cc(-c2ccc(Cl)cc2)nc2ccccc12)[C@@H]1CCCCN1 [S1] showed IC50 equal to 24.6

----------
- System: OVXF 899
- Measurement description: 3D clonogenic assay (PDX)
- Assay type: cell-based, human
- Run conditions: Homo sapiens; OVXF 899, Ovarian; read-out: rel. IC50
Quantity: IC50 (µM)
Give just the numeric value; µM need not be written.

The compound `O[C@H](c1cc(-c2ccc(Cl)cc2)nc2ccccc12)[C@@H]1CCCCN1` showed IC50 equal to 6.16

----------
- Test system: HNXF 1842
- Measurement description: 3D clonogenic assay (PDX)
- Format: cell-based, human
- Run conditions: Homo sapiens; HNXF 1842, Head and Neck; read-out: rel. IC50
Quantity: IC50 (µM)
Give just the numeric value; µM need not be written.

The molecule `O[C@H](c1cc(-c2ccc(Cl)cc2)nc2ccccc12)[C@@H]1CCCCN1` showed IC50 equal to 5.53

----------
- System: glioblastoma cell line U3013
- Measurement description: ATP viability assay (CellTiter-Glo)
- Assay type: cell-based, human
- Run conditions: Homo sapiens; U3013, positive control cell line; 24, 48 and 72 h
pIC50: −log10 of the molar value.
Quantity: pIC50

The compound O[C@H](c1cc(-c2ccc(Cl)cc2)nc2ccccc12)[C@@H]1CCCCN1 [S1] showed pIC50 equal to 5.46 to 5.72

----------
- Tested on: CXF 94
- Measurement description: 3D clonogenic assay (PDX)
- Type: cell-based, human
- Run conditions: Homo sapiens; CXF 94, Colorectal; read-out: abs. IC50
Quantity: IC50 (µM)
Give just the numeric value; µM need not be written.

The molecule `O[C@H](c1cc(-c2ccc(Cl)cc2)nc2ccccc12)[C@@H]1CCCCN1` showed IC50 equal to 13.3

----------
Answer each item with its documented Cmax.
- Measurement description: Pharmacokinetic evaluation in mice (plasma and brain)
- Type: in vivo, male NMRI mice
- Run conditions: male, NMRI, mouse, iv, plasma, 2 mg/kg
- Method: Compounds S1 and S2 were formulated at 0.4 mg/mL in 7.5% NMP, 10% Kolliphor in 0.9% NaCl (for i.v. administration) and at 2.0 mg/mL in 0.1% Tween 80, 0.5% Na-CMC in water (for p.o. administration). The pharmacokinetic properties of S1 and S2 were determined in male NMRI mice (Charles River, Germany) following single intravenous (i.v., tail vein, 2 mg/kg) or per oral (p.o, gavage, 20 mg/kg). […] Bioanalytical quantification of S1 and S2 was analysed in plasma and brain samples by a UPLC-MS/MS. […]
Give just the numeric value; ng/mL need not be written.

The compound `O[C@@H](c1cc(-c2ccc(Cl)cc2)nc2ccccc12)[C@H]1CCCCN1` showed Cmax equal to 455

The compound `O[C@H](c1cc(-c2ccc(Cl)cc2)nc2ccccc12)[C@@H]1CCCCN1` showed Cmax equal to 775
